Values were extracted from PubChem BioAssay.

Quick list: GFP response vs DMSO per entry.
# Protocol text: RPL19A-GFP modulators, yeast TOR pathway, confirmation, cell-based, S. cerevisiae, flow cytometry, cherry picks, mother/daughter gates (AID 2270)
# Condition set: S. cerevisiae RPL19A-GFP strain, 3 h, measured here: daughter cell gate, at 10 µM, stronger effect = lower value, 100 = same GFP as DMSO wells
Numeric only. Scale: %

{"Compound": "COc1ccccc1-c1noc(CCC(=O)Nc2cccc(C)c2)n1", "Experimental readout": "GFP response vs DMSO", "Quantity unit": "%", "Measured number": 100}
{"Compound": "COc1ccc2ccccc2c1/C=N/Nc1cccc(C(=O)O)c1", "Experimental readout": "GFP response vs DMSO", "Quantity unit": "%", "Measured number": 98.6}
{"Compound": "N/C(Cc1ccc(Cl)cc1Cl)=N\\OC(=O)c1ccccc1", "Experimental readout": "GFP response vs DMSO", "Quantity unit": "%", "Measured number": 86.3}
{"Compound": "COc1ccc(NS(=O)(=O)c2cccc3ccccc23)cc1", "Experimental readout": "GFP response vs DMSO", "Quantity unit": "%", "Measured number": 99.6}
{"Compound": "COc1cccc(C(=O)Nc2ccccc2)c1", "Experimental readout": "GFP response vs DMSO", "Quantity unit": "%", "Measured number": 97.4}

# context switch: different compound, same GFP response vs DMSO
Tell me the measured GFP response vs DMSO of Cc1ccc(N2C(=O)C3C4C=CC(CNC(=S)N5CCN(c6ccccc6)CC5)(O4)C3C2=O)cc1 (stereo unspecified) , please. 101

====

# Protocol text: yeast TOR pathway RPL19A-GFP modulators, primary screen, cell-based, S. cerevisiae, multiplex flow cytometry (AID 1862);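 further: lower values mimic rapamycin by blocking the RPL19A rise seen in DMSO cells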
# Condition set: S. cerevisiae RPL19A-GFP strain, flow cytometry fluorescence, 3 h; at 10 µM; stronger effect = lower value
Inconclusive results are not listed.
This listing pairs compounds with measured percent of DMSO control GFP.
Your answer is read as %, so omit the unit and give the number.

Recorded percent of DMSO control GFP, per entry:
{"Compound": "CCN(CC)Cc1c[nH]c2c(C(=O)OC)cccc12", "Experimental readout": "percent of DMSO control GFP", "Measured number": 98.8}
{"Compound": "C=CCc1cccc2cc(C(=O)Nc3ccc(CC(=O)O)cc3)c(=O)oc12", "Experimental readout": "percent of DMSO control GFP", "Measured number": 98.6}
{"Compound": "Clc1ccccc1CN1CCc2sccc2C1", "Experimental readout": "percent of DMSO control GFP", "Measured number": 100}
{"Compound": "CC(C)Cn1c(=S)[nH]c2cc(C(=O)O)ccc2c1=O", "Experimental readout": "percent of DMSO control GFP", "Measured number": 105}

For the compound shown here, CCOC(=O)c1oc2cc(OCC(N)=O)ccc2c(=O)c1-c1ccc(OC)c(OC)c1 , give the reported percent of DMSO control GFP. 109

I'd like to know its percent of DMSO control GFP. The compound in question is COc1ccccc1C(=O)c1cc2ccc(O)cc2oc1=O 103

====

# Protocol text: modulators of MEP2-GFP levels in yeast, confirmation, S. cerevisiae, flow cytometry GFP, cherry picks (AID 2272);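 further: ratio of well signal to plate DMSO mean so 100% equals DMSO level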
# Condition set: S. cerevisiae MEP2-GFP strain, 3 h, at 10 µM, stronger effect = higher value
Experimental readout: GFP response vs DMSO (%)
Hi! Could you send only the number? It should be in %, unit omitted.

{"Compound": "CC(C(=O)NCCc1ccc(F)cc1)N1CCN(Cc2ccccc2)CC1 (stereo unspecified)", "GFP response vs DMSO, %": 102}

Item CCN(CC)c1ccc2cc(C(=O)O)c(=O)oc2c1 has what recorded GFP response vs DMSO? 110

Which GFP response vs DMSO value is on record for O=C(N/N=C/c1ccccn1)c1sc2ccccc2c1Cl ? 114

GFP response vs DMSO for O=C(CN1C(=O)c2cccc3cccc(c23)C1=O)N1CCCCCC1 ? 94.7

Which GFP response vs DMSO is listed for CCc1nnc(N2C(=O)c3cccc4cccc(c34)C2=O)s1 ? 108

What value of GFP response vs DMSO has been recorded for this entry: Cc1c(NC2=C(Cl)C(=O)N(c3ccccc3Cl)C2=O)c(=O)n(-c2ccccc2)n1C 96.6

====

We begin with a simple list: items and their reported percent response of DMSO control.
# Protocol text: modulators of CIT2-GFP expression in yeast, primary screen, S. cerevisiae, GFP fusion, multiplex flow cytometry (AID 1870);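 further: barcoded CIT2-GFP strain pooled with four other GFP strains with rapamycin as positive control; median GFP fluorescence per well over plate mean of DMSO wells so 100% = DMSO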
# Condition set: 3 h, at 10 µM, stronger effect = higher value
Response body: numeric value in %, unit text excluded.

{"Molecule": "CNC[C@H](O)c1ccc(O)c(O)c1", "percent response of DMSO control (%)": 107}
{"Molecule": "COc1cc2c(cc1OC)C(Cc1ccc(O)cc1)N(C)CC2 (stereo unspecified)", "percent response of DMSO control (%)": 108}
{"Molecule": "OCCN1CCN(CCCN2c3ccccc3Sc3ccc(Cl)cc32)CC1", "percent response of DMSO control (%)": 100}
{"Molecule": "Cc1cc(-c2ccccc2)nnc1NCCN1CCOCC1", "percent response of DMSO control (%)": 93.9}
{"Molecule": "Cc1ccc2c(c1)c1c3n2CCCNC3CCC1 (stereo unspecified)", "percent response of DMSO control (%)": 107}

Query (molecule): N=C(N)c1ccc(OCCCCCOc2ccc(C(=N)N)cc2)cc1 ; field requested: percent response of DMSO control 96.5

Using the record for CC(C)C[C@H](NC(=O)NC(C)C)C(=O)O , report its percent response of DMSO control. 95.5

====

# Protocol text: modulators of MEP2-GFP levels in yeast, confirmation, S. cerevisiae, flow cytometry GFP, cherry picks (AID 2272);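 further: ratio of well signal to plate DMSO mean so 100% equals DMSO level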
# Condition set: S. cerevisiae MEP2-GFP strain, 3 h, at 10 µM, stronger effect = higher value
Listing: GFP response vs DMSO of selected compounds
Report the figure in % without appending any unit label.

Some entries whose results are on file:
{"Compound": "CC1CCN(S(=O)(=O)c2cccc(C(=O)Nc3nccs3)c2)CC1", "GFP response vs DMSO (%)": 100}
{"Compound": "COc1ccc(C2CC(=O)C(C(c3ccc(O)cc3)C3C(=O)CC(c4ccc(OC)cc4)CC3=O)C(=O)C2)cc1 (stereo not drawn)", "GFP response vs DMSO (%)": 96.6}
{"Compound": "CCOC(=O)c1ccc(NC(=O)CCc2nc(-c3ccccc3Cl)no2)cc1", "GFP response vs DMSO (%)": 108}
{"Compound": "O=C(O)CCC(=O)Nc1ccc(S(=O)(=O)c2ccc(NC(=O)CCC(=O)O)cc2)cc1", "GFP response vs DMSO (%)": 106}
{"Compound": "O=C1c2ccsc2SCCN1Cc1ccccc1Cl", "GFP response vs DMSO (%)": 90.5}
{"Compound": "COc1ccc(-c2csc(Nc3ncccc3C)n2)cc1", "GFP response vs DMSO (%)": 98.3}
{"Compound": "Fc1ccc(/C=N/Nc2nc(-c3cccnc3)nc3ccccc23)cc1", "GFP response vs DMSO (%)": 102}
{"Compound": "COc1ccc(-c2nc(N)n(C(C)=O)n2)cc1", "GFP response vs DMSO (%)": 102}
{"Compound": "Cc1ccc2nc(Cl)c3nnnn3c2c1", "GFP response vs DMSO (%)": 152}
{"Compound": "Cn1nnnc1N=N/C(=N/Nc1ccccc1)c1ccccc1", "GFP response vs DMSO (%)": 94.7}

Can you look up the measured GFP response vs DMSO of Cc1cc(Cl)ccc1N=c1ssnc1Cl for me? 109

Requested field: GFP response vs DMSO. Item: O=C(COc1ccccc1)NNC(=S)NC(=O)c1ccccc1 127

Value lookup for GFP response vs DMSO; key = CC(OC(=O)CSc1ccc([N+](=O)[O-])cc1)C(=O)NCc1ccccc1 (stereo not drawn) 100

====

# Protocol text: compound autofluorescence in yeast s288c, dose response, artefact control for yeast TOR pathway GFP screen, s288c strain (AID 2757);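 further: thousands of bead-calibrated equivalent soluble fluorophore molecules from median cell fluorescence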
# Condition set: S. cerevisiae s288c, 520 nm autofluorescence, flow cytometry, 3 h; at 33 µM; stronger effect = higher value; zero means same as solvent-only cells
Some of the results follow. The source made the active and inactive calls.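 Rule for the calls: active = fluorescence span over the dose series, or activity score, above about 33 (limit read from the data); inactive = the rest.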
# fluorescence change (kMESF span) values compiled below

{"Compound": "CCCc1ccc(OCC(=O)NNC(=S)NC(=O)c2ccco2)cc1", "fluorescence change (kMESF span)": "9.67 (inactive)"}
{"Compound": "COc1cccc(/C=N/Nc2ncc(C(F)(F)F)cc2Cl)c1O", "fluorescence change (kMESF span)": "1.52 (inactive)"}
{"Compound": "O=C1C=C(c2ccc(Cl)cc2)C(=O)N1Nc1ccccc1", "fluorescence change (kMESF span)": "0.3 (inactive)"}
{"Compound": "CCn1c(/C=C/c2ccc([N+](=O)[O-])o2)nc2ccccc2c1=O", "fluorescence change (kMESF span)": "108 (active)"}
{"Compound": "O=C(Nc1ccccc1)c1nnsc1S(=O)(=O)c1ccc(Cl)cc1", "fluorescence change (kMESF span)": "1.31 (inactive)"}
{"Compound": "CC(Oc1ccc2ccccc2c1)C(=O)NNC(=S)NC(=O)c1ccco1 (stereo unspecified)", "fluorescence change (kMESF span)": "2.02 (inactive)"}

Now look at this entry.
Please look up its fluorescence change (kMESF span): Cc1[nH][nH]c(=O)c1C(c1ccc(-c2ccc(Cl)cc2)o1)c1c(C)[nH][nH]c1=O 0.2 (inactive)
